- Tested on: HCT116
- method summary: efficacy (fitted maximal change in viability relative to DMSO control); higher = less cytotoxic (negative = loss of viability)
- assay conditions: 48 h
Returns the class for an entry based on its efficacy. Class ranges: lower level = under -70%, middle level = from -70% up to -20%, upper level = -20% and over

Examples with answers:
# compound, measurement target, label class
data = [
    ("CN[C@@H]1CN(C[C@H]1OC)C2=NC3=C(C=C2)C(=O)C(=C\\N3C4=NC=CS4)/C(O)=O [Vosaroxin]", "HCT116", "upper level"),
    ("CC(C)=CC[C@@H](O)C/1=C/C(=O)C2=C(O)C=CC(=C2C1=O)O [Shikonin]", "HCT116", "upper level"),
    ("Cc1cnc(NC(=O)c2cc(Oc3cnc(C(=O)N(C)C)nc3)c3cc(C)oc3c2)cn1", "HCT116", "upper level"),
    ("CCCCC[C@H](O)/C=C/[C@H]1[C@H](O)CC(=O)[C@@H]1C/C=C\\CCCC(=O)O [Prostaglandin E2]", "HCT116", "middle level"),
    ("Cc1[nH]c(/C=C2\\C(=O)Nc3ccc(F)cc32)c(C)c1C(=O)NCCN1CCCC1 [Toceranib]", "HCT116", "lower level"),
    ("CC(C)OC(=O)[C@H](C)N[P@](=O)(OC[C@H]1O[C@@H](N2\\C=C/C(=O)NC2=O)[C@](C)(F)[C@@H]1O)OC3=CC=CC=C3 [Sofosbuvir]", "HCT116", "upper level"),
    ("O=C1Nc2cc(Br)ccc2/C1=C1/Nc2ccccc2/C1=N\\O [BIO]", "HCT116", "lower level"),
    ("COc1ccc(CNC(=O)c2cc(-c3cncc(Cl)c3)cnc2-c2ccccn2)nc1OC [MK-1064]", "HCT116", "upper level"),
    ("COc1cc([C@@H]2c3cc4c(cc3[C@@H](O)C3COC(=O)C32)OCO4)cc(OC)c1O (stereo partly specified) [DMEP]", "HCT116", "middle level"),
    ("COc1cc(N2CCC(O)CC2)ccc1Nc1cc(Nc2ccccc2[S+](=O)([O-])C(C)C)c2cc[nH]c2n1 [MPS1-IN-1]", "HCT116", "lower level"),
]

-- ask Each compound maps to one class by efficacy. Which class for C[N]1C=C(C=N1)C2=CN=C3\C=C/C4=CC=C(C[S+]([O-])(=O)NCC5=NC=CC=C5)C=C4C(=O)C3=C2 [MK-8033] ?
-- reply middle level

-- ask Each compound maps to one class by efficacy. Which class for Cc1c(NC(=O)OC[C@@H]2COCCN2)cn2ncnc(Nc3ccc4c(cnn4Cc4cccc(F)c4)c3)c12 [AC-480] ?
-- reply lower level

-- ask Each compound maps to one class by efficacy. Which class for N\C1=N\C2=C(N=C[N]2COC(CO)CO)C(=O)N1 [Ganciclovir] ?
-- reply upper level

-- ask Each compound maps to one class by efficacy. Which class for OC1=CC2=C(C(=C1)O)C(=O)\C(=C(/O2)C3=CC(=C(O)C(=C3)O)O)O [Myricetin] ?
-- reply middle level

-- ask Each compound maps to one class by efficacy. Which class for COc1ccc(-c2cc3nccn3c(Nc3ncccc3C(N)=O)n2)cc1OC [BAY61-3606] ?
-- reply middle level

---

- Tested on: HCT116;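 further: Luminescence-based viability readout, five doses per compound, normalized against on-plate DMSO and empty-well controls, followed by dose-response curve fitting for every drug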
- method summary: efficacy (fitted maximal change in viability relative to DMSO control); higher = less cytotoxic (negative = loss of viability)
- assay conditions: 48 h
Label true when efficacy >= -50%; otherwise false.

Examples with answers:
# compound, label class
measured = [
    ("Clc1ccc(C(c2ccccc2Cl)C(Cl)Cl)cc1 (stereo unspecified)", "false"),
    ("C[C@@H](NC1=CC=CC=C1C(O)=O)C/2=C/C(=C\\N3C(=O)/C=C(\\N=C23)N4CCOCC4)C", "false"),
    ("O=C(c1ccc(N[S+](=O)([O-])c2cccc3cccnc23)cc1)N1CCN(CC2CC2)CC1", "true"),
    ("Cn1ncc(Cl)c1-c1cc(C(=O)NC(CN)Cc2ccc(F)c(F)c2)oc1Cl (stereo unspecified)", "false"),
]

-- ask Test whether the compound `COc1cc([C@@H]2c3cc4c(cc3[C@H](O)[C@H]3COC(=O)[C@@H]23)OCO4)cc(OC)c1OC` records efficacy of -50% or higher.
-- reply false

-- ask Test whether the compound COC1=CC=C(C=C1)C2CC(=N/N2C3=CC=C(C=C3)[S+](N)([O-])=O)\C4=CC=CC=C4 (stereo unspecified) records efficacy of -50% or higher.
-- reply false

-- ask Test whether the compound `CCCCc1nc2cc(/C=C/C(=O)NO)ccc2n1CCN(CC)CC` records efficacy of -50% or higher.
-- reply false

-- ask Test whether the compound `COc1ccc(N(C(=O)Oc2c(C)cccc2C)c2ccnc(Nc3ccc(N4CCN(C)CC4)cc3)n2)c(OC)c1` records efficacy of -50% or higher.
-- reply true
